Test system Caspase-8 (Homo sapiens, UniProt Q14790), Ki listed for each of the molecules.

Observe how each entry below is paired with its result.
1. CN(CC1CCCN1S(=O)(=O)c1ccc2c(c1)C(=O)C(=O)N2)c1ccccc1 (stereo not drawn) :: > 50 µM
2. O=C1Nc2ccc(S(=O)(=O)N3CCCC3)cc2C1=O :: > 50 µM

// below: Ki requested for another molecule
Lab note: O=C1Nc2ccc(S(=O)(=O)N3CCC[C@H]3COc3ccccc3)cc2C1=O gave Ki of 49 µM

* * *

# MEASURED_ON: Caspase-6 (Homo sapiens)
# Sequence (P55212 24-179 limits assumed): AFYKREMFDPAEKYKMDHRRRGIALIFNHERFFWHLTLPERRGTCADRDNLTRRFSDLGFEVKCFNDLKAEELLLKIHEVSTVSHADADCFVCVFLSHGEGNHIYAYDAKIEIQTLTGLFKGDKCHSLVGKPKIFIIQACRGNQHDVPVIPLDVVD
# Sequence (P55212 194-293 limits assumed): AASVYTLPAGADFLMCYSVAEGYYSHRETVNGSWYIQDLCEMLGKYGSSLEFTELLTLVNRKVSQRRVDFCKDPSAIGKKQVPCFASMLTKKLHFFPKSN
Readings of Ki for the listed compounds
Express your answer in µM, writing the number without its unit.

Observe how each entry below is paired with its result.
1) CN(CC1CCCN1S(=O)(=O)c1ccc2c(c1)C(=O)C(=O)N2)c1ccccc1 (configuration not stated) :: 57
2) CN1C(=O)C(=O)c2cc([N+](=O)[O-])ccc21 :: 1.7
3) O=C1Nc2ccc(S(=O)(=O)N3CCC[C@H]3CNc3ccccc3)cc2C1=O :: 7.5

// below: Ki requested for another compound
Lab note: O=C1Nc2ccc(S(=O)(=O)N3CCC[C@H]3COc3ccccc3)cc2C1=O gave Ki of 29

All figures here come from ChEMBL document CHEMBL1134769.
